Tested on: Escherichia coli TOP10;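 further: peptides expressed intracellularly from a pBAD plasmid library in pooled LB shake-flask culture, induced with 0.3% L-arabinose, DNA abundance read by NGS, three biological replicates, DESeq2 with apeglm shrinkage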
Assay: shrunken log2 fold change of peptide-encoding DNA abundance (4.5 h post-induction vs induction); higher = less antimicrobial activity (less host growth inhibition)
Settings: time post-induction: 4.5 h; library: site-saturation at positions 5, 18, 19, 20
Everything with shrunken log2 fold change lower than -0.2 is N; everything else, including exactly -0.2, is Y.

>>> group("RRIRERPPRLPRPRPRPLIIPRP")
"N"
>>> group("RRIRVRPPRLPRPRPRPEQPPRP")
"Y"
>>> group("RRIRPRPPRLPRPRPRPQEHPRP")
"N"
>>> group("RRIRRRPPRLPRPRPRPYMTPRP")
"Y"
>>> group("RRIRQRPPRLPRPRPRPIGVPRP")
"Y"
>>> group("RRIRMRPPRLPRPRPRPNNTPRP")
"N"
>>> group("RRIRQRPPRLPRPRPRPNIYPRP")
"Y"
>>> group("RRIRLRPPRLPRPRPRPLKHPRP")
"Y"
>>> group("RRIRMRPPRLPRPRPRPYQSPRP")
"Y"
>>> group("RRIRDRPPRLPRPRPRPHISPRP")
"Y"
>>> group("RRIRFRPPRLPRPRPRPHGWPRP")
"Y"
>>> group("RRIRRRPPRLPRPRPRPPMIPRP")
"Y"
>>> group("RRIRFRPPRLPRPRPRPWSCPRP")
"Y"
>>> group("RRIRTRPPRLPRPRPRPQHMPRP")
"N"
>>> group("RRIRARPPRLPRPRPRPDFHPRP")
"Y"
>>> group("RRIRPRPPRLPRPRPRPTYDPRP")
"N"
>>> group("RRIRYRPPRLPRPRPRPGEWPRP")
"Y"
>>> group("RRIRWRPPRLPRPRPRPIHCPRP")
"Y"
>>> group("RRIRLRPPRLPRPRPRPECIPRP")
"Y"

These entries and their values trace back to the supplement of paper PMC9112550.
